tested on: E. coli UB1005; type: cell-based, Escherichia coli; settings: UB1005, 24 h
Where no end group is shown, it is not given here.

>  <SUBSTANCE>
LRRRLLLLR-NH2 [L6]

>  <MIC>
>64 µM

$$$$
>  <SUBSTANCE>
RLLLLRRLR-NH2 [L10]

>  <MIC>
> 64 µM

$$$$
>  <SUBSTANCE>
LRRRRLLLL-NH2 [L11]

>  <MIC>
>64 µM

$$$$
>  <SUBSTANCE>
RRLLLLRRL-NH2 [L7]

>  <MIC>
>64 µM

$$$$

* * *

system: S. typhimurium 7731; type: cell-based, Salmonella typhimurium; details: 7731, 24 h
Where no end group is shown, it is not given here.
The entries below are paired with their reported MIC.
ENDPOINT: MIC

>  <SUBSTANCE>
RRLLLLRRL-NH2 [L7]

>  <MEASURED RESULT>
> 64 µM

$$$$
>  <SUBSTANCE>
LRRLRLLRL-NH2 [L12]

>  <MEASURED RESULT>
> 64 µM

$$$$
>  <SUBSTANCE>
LRRRRLLLL-NH2 [L11]

>  <MEASURED RESULT>
> 64 µM

$$$$
>  <SUBSTANCE>
LRRRLLLLR-NH2 [L6]

>  <MEASURED RESULT>
> 64 µM

$$$$
>  <SUBSTANCE>
LLLRRRRLL-NH2 [L4]

>  <MEASURED RESULT>
> 64 µM

$$$$
